Measured IC50 accompanies every entry in the list below.
biological target: NDM-1 (Klebsiella pneumoniae, UniProt C7C422); experiment: biochemical; assay type: biochemical; details: fluorescence assay, CCF2-FA substrate, 1 pM enzyme, 2 hours at 25° C.; read-out: NDM-1 IC50
Sequence (C7C422 whole entry, looked up, species assumed): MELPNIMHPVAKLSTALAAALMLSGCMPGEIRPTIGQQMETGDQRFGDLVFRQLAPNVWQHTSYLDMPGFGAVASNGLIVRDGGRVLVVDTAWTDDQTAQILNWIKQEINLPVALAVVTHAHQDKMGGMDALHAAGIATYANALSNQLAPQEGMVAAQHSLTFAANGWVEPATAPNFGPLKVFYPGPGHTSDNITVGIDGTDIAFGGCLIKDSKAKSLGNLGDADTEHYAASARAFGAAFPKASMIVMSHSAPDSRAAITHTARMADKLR
Response body: numeric value in nM, unit text excluded.

See these solved cases before continuing.
Nc1ccc(-c2ccc(S(=O)(=O)NC3CNC3)c(S(N)(=O)=O)c2-c2nn[nH]n2)cn1 [Example 493]; 0.189
Nc1nc2c(-c3ccc(S(=O)(=O)NC[C@H]4CCNC4)c(S(N)(=O)=O)c3-c3nn[nH]n3)cccc2[nH]1 [Example 259]; 0.0555

Ask: Supply recorded IC50 for NC[C@@H](N)CNS(=O)(=O)c1ccc(-c2cnc3cc[nH]c3c2)c(-c2nn[nH]n2)c1S(N)(=O)=O [Example 378] here.
Reply: 0.0511

----------
target: VIM-1 (Pseudomonas aeruginosa (strain ATCC 15692 / DSM 22644 / CIP 104116 / JCM 14847 / LMG 12228 / 1C / PRS 101 / PAO1), UniProt A0A0F7KYQ8); assay: biochemical; conditions: fluorescence assay, CCF2-FA substrate, 30 pM enzyme, 2 hours at 25° C.; read-out: VIM-1 IC50
Catalogue of pIC50 readings, one per entry.
Lab note — pIC50 values are minus log10 of concentrations in M.

Here is how some compounds turned out for pIC50.
CNc1nc2c(-c3ccc(S(=O)(=O)N[C@H]4CCNC4)c(S(N)(=O)=O)c3-c3nn[nH]n3)cccc2[nH]1; 9.76
Nc1nc2c(-c3ccc(S(=O)(=O)NC[C@]4(N)CCNC4)c(S(N)(=O)=O)c3-c3nn[nH]n3)cccc2[nH]1; 9.70

Ask: Give a short answer stating reported pIC50 for CN1CCC(NS(=O)(=O)c2ccc(-c3cccc4sc(N)nc34)c(-c3nnn[nH]3)c2S(N)(=O)=O)C1 (stereo not drawn) .
Reply: 9.72

----------
biological target: VIM-1 (Pseudomonas aeruginosa (strain ATCC 15692 / DSM 22644 / CIP 104116 / JCM 14847 / LMG 12228 / 1C / PRS 101 / PAO1), UniProt A0A0F7KYQ8); experiment: biochemical; conditions: fluorescence assay, CCF2-FA substrate, 30 pM enzyme, 2 hours at 25° C.; read-out: VIM-1 IC50
Criterion: IC50 strictly under 0.2 nM. Met: condition met. Not met: condition not met.

Solved entries:
Nc1nc2c(-c3ccc(S(=O)(=O)NC4C[C@@H]5CN[C@H]4C5)c(S(N)(=O)=O)c3-c3nnn[nH]3)cccc2s1.O=CO (stereo partly drawn) [Example 119, formate salt]; condition not met
Nc1nc2c(-c3ccc(S(=O)(=O)N[C@]4(CO)CCNC4)c(S(N)(=O)=O)c3-c3nnn[nH]3)cccc2[nH]1; condition not met

Ask: I'd appreciate it if you could check whether NC(=O)c1nc2c(-c3ccc(S(=O)(=O)N[C@@H]4CCNC4)c(S(N)(=O)=O)c3-c3nn[nH]n3)cccc2[nH]1 has IC50 smaller than 0.2 nM.
Reply: condition met

Ask: Decide: IC50 of Nc1cccc(-c2ccc(S(=O)(=O)N[C@@H]3CCNC3)c(S(N)(=O)=O)c2-c2nn[nH]n2)n1 strictly below 0.2 nM?
Reply: condition met

Ask: IC50 under 0.2 nM? Item: NCc1nc2cc(-c3ccc(S(=O)(=O)NC[C@H](O)CN)c(S(N)(=O)=O)c3-c3nn[nH]n3)ccc2s1
Reply: condition met

Ask: Criterion: IC50 strictly below 0.2 nM. Is it met by CNCCNS(=O)(=O)c1ccc(-c2cccc3sc(N)nc23)c(-c2nnn[nH]2)c1S(N)(=O)=O ?
Reply: condition not met
